These entries and their values trace back to the supplement of paper PMC10126150.

system: ATP; experiment: switch fluorescence ratio, 500 uM ATP over buffer (Cy3 cluster intensity, sum of 5 cycles each) (fold (ratio)); higher = stronger signal-on switching upon ATP binding; sequences stand for … in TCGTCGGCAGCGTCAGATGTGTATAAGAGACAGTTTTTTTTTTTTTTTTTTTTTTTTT…TC; conditions: aptamer strand: ATP DNA aptamer (quencher-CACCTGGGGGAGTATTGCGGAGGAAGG + anchor), 100 nM annealed; ATP concentration: 500 uM;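 further: ATP exposure 15 min at 22 °C before imaging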
METRIC NAME: switch fluorescence ratio

* TAATAGTGTT | 1.02
* TGATTTTTTA | 0.992
* GGGTAACGGC | 1.01
* GTTTATGCAC | 1.06
* GTTTTGAGAG | 0.959
* GAGACATTAC | 1.61
* AGTGTGAAGG | 1
* CGAATCGGCT | 1.05
* CATTTGTGTT | 1.02
* CCTCATCTTG | 1.02
